Every entry's value here was drawn from a melting point compilation (Tetko et al.; mined from patent text by program, amines drawn as free bases though some values may be those of a salt).

melting point by entry:

>  <compound>
COC1CN(C(C)CC(C(=O)N(C)C)(c2ccccc2)c2ccccc2)CCC1NC(=O)c1cccc(C(F)(F)F)c1 (centres undefined)

>  <melting point>
198 °C

$$$$
>  <compound>
Cc1ccc(Nc2nc(-c3ccc(OC(F)(F)F)cc3)cs2)nc1

>  <melting point>
205 to 207 °C

$$$$
>  <compound>
COC(=O)C(=Cc1cc(OC)cc(OC)c1)c1ccc(Oc2ccc(CO)cc2)cc1

>  <melting point>
93 to 95 °C

$$$$
>  <compound>
Cc1cccc(C)c1CNc1cc(C(=O)O)cc2c1nc(C)n2C

>  <melting point>
315 to 318 °C

$$$$
>  <compound>
COc1ccc2c(c1)C(C)N(C)C(=O)C2c1cc(OC)c(OC)c(OC)c1 (centres undefined)

>  <melting point>
135 to 140 °C

$$$$
>  <compound>
NCC(=O)OCc1ccc([N+](=O)[O-])cc1

>  <melting point>
45 to 50 °C

$$$$
>  <compound>
CCc1cnc2c(NC(=O)c3c(Cl)cccc3Cl)cccc2c1/C=C/C(N)=O

>  <melting point>
> 250 °C

$$$$
>  <compound>
NC(=O)CNC(=O)c1cncc(-c2cccc3cc(Cc4cccc(C(F)(F)F)c4)sc23)c1

>  <melting point>
122 to 123 °C

$$$$
>  <compound>
CC(C)c1c(C(=O)Nc2ccccc2)c(-c2ccccc2)c(-c2ccc(F)cc2)n1CC[C@H]1C[C@H](O)CC(=O)O1 (relative stereo)

>  <melting point>
90 to 97 °C

$$$$
